Target: Procathepsin L (Homo sapiens)
Sequence (P07711 whole entry): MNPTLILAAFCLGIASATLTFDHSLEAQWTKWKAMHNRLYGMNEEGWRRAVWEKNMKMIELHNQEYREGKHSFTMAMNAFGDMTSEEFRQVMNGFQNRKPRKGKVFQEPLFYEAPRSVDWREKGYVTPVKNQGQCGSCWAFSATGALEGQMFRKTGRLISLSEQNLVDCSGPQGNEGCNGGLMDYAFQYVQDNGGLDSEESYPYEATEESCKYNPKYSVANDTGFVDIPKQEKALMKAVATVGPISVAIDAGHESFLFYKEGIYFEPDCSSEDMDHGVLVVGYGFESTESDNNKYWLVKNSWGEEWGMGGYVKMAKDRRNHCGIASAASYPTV
Assay: Enzyme Inhibition Assay: Enzyme activity is measured by observing the increase in fluorescence intensity caused by cleavage of a peptide substrate containing a fluorophore whose emission is quenched in the intact peptide.Assay buffer: 100 mM potassium phosphate pH 6.5, EDTA-Na 5 mM, Triton X-100 0.001%, DTT 5 mM.Enzymes (all at 1 nM): human and mouse Cathepsin S, Cat K, Cat B, Cat L.Substrate (20 μM): Z-Val-Val-Arg-AMC, except for Cat K which uses Z-Leu-Arg-AMC (both from Bachem).Z=Benzyloxycarbonyl.AMC=7-Amino-4-Methyl-Coumarin.DTT=dithiothreitol.Final volume: 100 μL.Excitation 360 nm, Emission 465 nm.Enzyme is added to the substance dilutions in 96-well microtitre plates and the reaction is started with substrate. Fluorescence emission is measured over 20 minutes, during which time a linear increase is observed in the absence of inhibitor.
pIC50: −log10 of the molar value.
Quantity Name: pIC50

(I) C[C@H](Oc1ccc(S(=O)(=O)[C@@H]2C[C@@H](C(=O)NC3(C#N)CC3)N(C(=O)C3(c4ncc(Br)cc4F)CN(C)C3)C2)c(Cl)c1)C(F)(F)F
(II) C[C@H](Oc1ccc(S(=O)(=O)[C@@H]2C[C@@H](C(=O)NC3(C#N)CC3)N(C(=O)C3(c4ncc(Br)cc4F)CCN3C(=O)OC(C)(C)C)C2)c(Cl)c1)C(F)(F)F (some centres undefined)
(III) Cc1cc(-c2ccc(S(=O)(=O)[C@@H]3C[C@@H](C(=O)NC4(C#N)CC4)N(C(=O)C4(c5ncc(Cl)cc5F)CCN4C(=O)OC(C)(C)C)C3)c(Cl)c2)ccn1 (some centres undefined)
(IV) Cn1cc(-c2ccc(S(=O)(=O)[C@@H]3C[C@@H](C(=O)NC4(C#N)CC4)N(C(=O)C4(c5ncc(Br)cc5F)CCN4C(=O)OC(C)(C)C)C3)c(Cl)c2)cn1 (some centres undefined)
## Input Rank the 4 molecules shown above by pIC50, smallest number first. To answer, write out the labels according to the requested order.
## Output IV, III, II, I

----------
Target: Cathepsin S (Homo sapiens)
Sequence (P25774 whole entry): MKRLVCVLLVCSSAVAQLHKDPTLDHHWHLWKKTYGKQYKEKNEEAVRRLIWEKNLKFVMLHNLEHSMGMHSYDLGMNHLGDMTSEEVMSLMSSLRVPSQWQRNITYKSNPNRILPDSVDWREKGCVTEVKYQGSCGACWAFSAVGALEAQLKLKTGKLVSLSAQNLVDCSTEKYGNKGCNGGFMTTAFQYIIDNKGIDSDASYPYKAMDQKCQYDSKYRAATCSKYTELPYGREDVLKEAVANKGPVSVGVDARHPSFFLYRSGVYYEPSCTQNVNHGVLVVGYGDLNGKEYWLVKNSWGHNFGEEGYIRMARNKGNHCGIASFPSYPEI
Assay: Enzyme Inhibition Assay: Enzyme activity is measured by observing the increase in fluorescence intensity caused by cleavage of a peptide substrate containing a fluorophore whose emission is quenched in the intact peptide.Assay buffer: 100 mM potassium phosphate pH 6.5, EDTA-Na 5 mM, Triton X-100 0.001%, DTT 5 mM.Enzymes (all at 1 nM): human and mouse Cathepsin S, Cat K, Cat B, Cat L.Substrate (20 μM): Z-Val-Val-Arg-AMC, except for Cat K which uses Z-Leu-Arg-AMC (both from Bachem).Z=Benzyloxycarbonyl.AMC=7-Amino-4-Methyl-Coumarin.DTT=dithiothreitol.Final volume: 100 μL.Excitation 360 nm, Emission 465 nm.Enzyme is added to the substance dilutions in 96-well microtitre plates and the reaction is started with substrate. Fluorescence emission is measured over 20 minutes, during which time a linear increase is observed in the absence of inhibitor.
pIC50: −log10 of the molar value.
Quantity Name: pIC50

Cc1cc(-c2ccc(S(=O)(=O)[C@@H]3C[C@@H](C(=O)NC4(C#N)CC4)N(C(=O)C4(c5ncc(Cl)cc5F)CCN4C(=O)OC(C)(C)C)C3)c(Cl)c2)ccn1 (some centres undefined)
8.81

(I) Cn1cc(-c2ccc(S(=O)(=O)[C@@H]3C[C@@H](C(=O)NC4(C#N)CC4)N(C(=O)C4(c5ncc(Br)cc5F)CCN4C(=O)OC(C)(C)C)C3)c(Cl)c2)cn1 (some centres undefined)
(II) C[C@H](Oc1ccc(S(=O)(=O)[C@@H]2C[C@@H](C(=O)NC3(C#N)CC3)N(C(=O)C3(c4ncc(Br)cc4F)CCN3C(=O)OC(C)(C)C)C2)c(Cl)c1)C(F)(F)F (some centres undefined)
(III) C[C@H](Oc1ccc(S(=O)(=O)[C@@H]2C[C@@H](C(=O)NC3(C#N)CC3)N(C(=O)C3(c4ncc(Br)cc4F)CN(C)C3)C2)c(Cl)c1)C(F)(F)F
## Input Output the entries ranked by pIC50 from maximum down to minimum. Return the labels ranked in the requested order, please.
## Output I, III, II
(I: 8.95, III: 8.67, II: 8.26)
